system: 276233-004-R-J1-PDC KRAS spheroids with HUVEC/MSC, viability; test: Anticancer human tumor 276233-004-R-J1-PDC patient-derived colon adenocarcinoma cell line growth inhibition [KRAS2]; details: curve of first compound; second compound 0.0316 µM;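 further: cells exposed to agents for seven days before viability read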
What IC50 was measured for each of the following?

Record Cn1nccc1Nc1nccc(-c2cc3c(s2)C(C)(C)N(CCN2CCOCC2)C3=O)n1 + C=CC(=O)N1CCN(c2nc(OCC3CCCN3C)nc3c2CCN(c2cccc4cccc(C)c24)C3)CC1CC#N , field IC50: 4.83 µM

GET /value?item= CC(C)NCC(C(=O)N1CCN(c2ncnc3c2C(C)CC3O)CC1)c1ccc(Cl)cc1 (stereo not drawn) + C=CC(=O)N1CCN(c2nc(OCC3CCCN3C)nc3c2CCN(c2cccc4cccc(C)c24)C3)CC1CC#N &field=IC50 returns > 10 µM

CC1(C)CCC(CN2CCN(c3ccc(C(=O)NS(=O)(=O)c4ccc(NCC5CCOCC5)c([N+](=O)[O-])c4)c(Oc4cnc5[nH]ccc5c4)c3)CC2)=C(c2ccc(Cl)cc2)C1 + C=CC(=O)N1CCN(c2nc(OCC3CCCN3C)nc3c2CCN(c2cccc4cccc(C)c24)C3)CC1CC#N has a reported IC50 of > 10 µM

Reported IC50 for CN(C)C/C=C/C(=O)Nc1cc2c(Nc3ccc(F)c(Cl)c3)ncnc2cc1O[C@H]1CCOC1 + C=CC(=O)N1CCN(c2nc(OCC3CCCN3C)nc3c2CCN(c2cccc4cccc(C)c24)C3)CC1CC#N was > 0.1 µM

Entry under test: CC(C)n1nc(-c2ccc3oc(N)nc3c2)c2c(N)ncnc21 + C=CC(=O)N1CCN(c2nc(OCC3CCCN3C)nc3c2CCN(c2cccc4cccc(C)c24)C3)CC1CC#N . Its IC50 was > 0.1 µM

// field: IC50; key: COc1cc(Nc2ncc3c(n2)-c2ccc(Cl)cc2C(c2c(F)cccc2OC)=NC3)ccc1C(=O)O + C=CC(=O)N1CCN(c2nc(OCC3CCCN3C)nc3c2CCN(c2cccc4cccc(C)c24)C3)CC1CC#N ; value = > 10 µM

In plain terms, CC1COCCN1c1cc(-c2ccnn2C)c2ccnc(-c3ccn[nH]3)c2n1 (stereo not drawn) + C=CC(=O)N1CCN(c2nc(OCC3CCCN3C)nc3c2CCN(c2cccc4cccc(C)c24)C3)CC1CC#N has a documented IC50 of > 3.16 µM

Documented IC50 of CCN1CCN(Cc2ccc(Nc3ncc(F)c(-c4cc(F)c5nc(C)n(C(C)C)c5c4)n3)nc2)CC1 + C=CC(=O)N1CCN(c2nc(OCC3CCCN3C)nc3c2CCN(c2cccc4cccc(C)c24)C3)CC1CC#N : > 1 µM
